Value source: paper PMC6382696

Entries and their pEC50
test system: human bronchial rings; assay: Wire myograph bronchodilation of carbachol pre-contracted human bronchial rings (Amgen); conditions: Homo sapiens, supplement; 5 M indomethacin (so in the source); read-out: EC50 relaxation of carbachol pre-contracted human bronchial rings
pEC50: −log10 of the molar value.
Recorded endpoint: pEC50

• N#Cc1c(C(F)(F)F)cc(O)n2c1nc1ccccc12 = 6.12
• CCc1oc2ccccc2c1C(=O)c1cc(Br)c(O)c(Br)c1 = 5.46
• O=C(O)c1cccnc1Nc1cccc(C(F)(F)F)c1 = 4.83

###

Molecular target: hTMEM16A (abc) (Homo sapiens, UniProt Q5XXA6, DEL476-501)
Sequence (Q5XXA6 with tags, fused parts or gaps isoform Q5XXA6-5 DEL539-564): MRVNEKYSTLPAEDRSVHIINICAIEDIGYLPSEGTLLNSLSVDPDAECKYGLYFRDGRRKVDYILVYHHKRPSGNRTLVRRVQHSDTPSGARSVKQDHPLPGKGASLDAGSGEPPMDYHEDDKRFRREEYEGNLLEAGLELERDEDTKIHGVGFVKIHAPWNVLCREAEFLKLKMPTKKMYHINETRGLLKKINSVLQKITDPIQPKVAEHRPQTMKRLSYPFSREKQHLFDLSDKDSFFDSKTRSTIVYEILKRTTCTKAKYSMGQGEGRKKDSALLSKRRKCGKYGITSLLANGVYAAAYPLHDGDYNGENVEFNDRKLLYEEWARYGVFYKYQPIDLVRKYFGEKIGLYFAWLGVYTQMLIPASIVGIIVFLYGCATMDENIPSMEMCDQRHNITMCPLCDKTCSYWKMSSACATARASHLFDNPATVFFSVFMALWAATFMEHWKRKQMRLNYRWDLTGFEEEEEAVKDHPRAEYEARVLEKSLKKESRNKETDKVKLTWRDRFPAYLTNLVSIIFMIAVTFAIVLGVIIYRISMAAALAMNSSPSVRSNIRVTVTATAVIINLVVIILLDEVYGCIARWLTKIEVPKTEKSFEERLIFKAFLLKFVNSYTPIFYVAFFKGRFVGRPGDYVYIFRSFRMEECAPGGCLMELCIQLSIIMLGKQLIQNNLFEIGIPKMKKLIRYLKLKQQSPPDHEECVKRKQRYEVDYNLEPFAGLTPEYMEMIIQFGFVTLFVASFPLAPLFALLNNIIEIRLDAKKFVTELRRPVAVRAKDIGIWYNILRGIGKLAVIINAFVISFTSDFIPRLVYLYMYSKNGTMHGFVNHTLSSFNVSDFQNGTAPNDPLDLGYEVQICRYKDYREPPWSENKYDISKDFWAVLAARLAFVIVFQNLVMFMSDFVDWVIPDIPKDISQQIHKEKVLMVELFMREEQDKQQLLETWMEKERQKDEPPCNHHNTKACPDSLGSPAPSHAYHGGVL
Test: TMEM16A halide-sensitive YFP (eYFP) high-throughput screening assay
Type: cell-based
Parameters: expressed in transfected cells
Conditions: 22-point dose-response; read-out: IC50, TMEM16A eYFP assay dose response of the HTS campaign
Recorded endpoint: IC50

* N#Cc1c(C(F)(F)F)cc(O)n2c1nc1ccccc12 | 1.05 µM
